# TESTED_TARGET: PDE4D2 (Homo sapiens, UniProt Q08499)
# Sequence (Q08499 303-809 limits assumed): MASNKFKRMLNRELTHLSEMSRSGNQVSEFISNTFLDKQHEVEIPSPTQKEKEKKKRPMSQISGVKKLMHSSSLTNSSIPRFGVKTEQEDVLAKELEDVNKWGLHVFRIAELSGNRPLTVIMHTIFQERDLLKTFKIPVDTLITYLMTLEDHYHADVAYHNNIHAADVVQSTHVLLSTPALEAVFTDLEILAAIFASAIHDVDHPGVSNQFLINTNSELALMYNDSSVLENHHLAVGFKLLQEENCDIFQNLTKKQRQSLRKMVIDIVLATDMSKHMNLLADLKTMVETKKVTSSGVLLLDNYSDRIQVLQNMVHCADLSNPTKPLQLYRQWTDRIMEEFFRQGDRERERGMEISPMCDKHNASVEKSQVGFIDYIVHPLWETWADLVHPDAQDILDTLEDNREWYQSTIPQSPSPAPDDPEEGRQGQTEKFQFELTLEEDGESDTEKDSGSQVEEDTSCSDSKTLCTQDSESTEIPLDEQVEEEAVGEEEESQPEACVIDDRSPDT
EXPERIMENTAL_ENDPOINT: pIC50
As a rule, pIC50 stands for the negative log10 of the concentration, concentration in M.

Worked examples follow.
Cc1nc2c(s1)CN(c1nc3c(c(NC4(CO)CCC4)n1)[S+]([O-])CC3)CC2 (stereo not shown) ... 7.76
[O-][S@+]1CCc2nc(N3CCc4nc(N5CCC5)sc4C3)nc(NC3(CO)CCC3)c21 ... 8.46
[O-][S@+]1CCc2nc(N3CCc4nc(N5CCCC5)ccc4C3)nc(NC3(CO)CCC3)c21 ... 8.47

What pIC50 appears in the records for this molecule with PDE4D2 (Homo sapiens, UniProt Q08499)? O=c1[nH]c2cc3c(cc2o1)CN(c1nc2c(c(NC4(CO)CCC4)n1)[S@+]([O-])CC2)CC3
8.93

----------
PDE4D2 (Homo sapiens): reported IC50 for various molecules.
Note: unit nM is implicit; provide only the numeric part.

Worked examples follow.
[O-][S+]1CCc2nc(N3Cc4nn5cc(Cl)cnc5c4C3)nc(NC3(CO)CCC3)c21 (centres unmarked) ... 60.1
[O-][S+]1CCc2nc(N3CCc4cc(-n5ccnc5)ccc4C3)nc(NC3(CO)CCC3)c21 (centres unmarked) ... 0.385
[O-][S+]1CCc2nc(N3CCc4cc(Cl)ncc4C3)nc(NC3(CO)CCC3)c21 (centres unmarked) ... 4.02
[O-][S+]1CCc2nc(N3CC[C@H]4c5ccc(Cl)cc5OC[C@H]4C3)nc(NC3(CO)CCC3)c21 (some centres unmarked) ... 12.4
[O-][S+]1CCc2nc(N3CCc4ncsc4C3)nc(NC3(CO)CCC3)c21 (centres unmarked) ... 28.6

What IC50 appears in the records for this molecule with PDE4D2 (Homo sapiens)? [O-][S@+]1CCc2nc(N3CCc4nn5cc(Cl)cnc5c4C3)nc(NC3(CO)CCC3)c21
7.25

What IC50 appears in the records for this molecule with PDE4D2 (Homo sapiens)? CNc1nc2cc(Cl)ccc2c2c1CN(c1nc3c(c(NC4(CO)CCC4)n1)[S@+]([O-])CC3)CC2
1.09

What IC50 appears in the records for this molecule with PDE4D2 (Homo sapiens)? [O-][S@+]1CCc2nc(N3CCc4c(nn5cc(Cl)ccc45)C3)nc(NC3(CO)CCC3)c21
0.224

----------
# TESTED_TARGET: PDE4B2 (Homo sapiens, UniProt Q07343)
# Construct: expressed in transfected cells; host or cells: Flp-In-293 (Flpin-293-PDE4B2 [sic])
# Sequence (Q07343 1-564 isoform Q07343-2): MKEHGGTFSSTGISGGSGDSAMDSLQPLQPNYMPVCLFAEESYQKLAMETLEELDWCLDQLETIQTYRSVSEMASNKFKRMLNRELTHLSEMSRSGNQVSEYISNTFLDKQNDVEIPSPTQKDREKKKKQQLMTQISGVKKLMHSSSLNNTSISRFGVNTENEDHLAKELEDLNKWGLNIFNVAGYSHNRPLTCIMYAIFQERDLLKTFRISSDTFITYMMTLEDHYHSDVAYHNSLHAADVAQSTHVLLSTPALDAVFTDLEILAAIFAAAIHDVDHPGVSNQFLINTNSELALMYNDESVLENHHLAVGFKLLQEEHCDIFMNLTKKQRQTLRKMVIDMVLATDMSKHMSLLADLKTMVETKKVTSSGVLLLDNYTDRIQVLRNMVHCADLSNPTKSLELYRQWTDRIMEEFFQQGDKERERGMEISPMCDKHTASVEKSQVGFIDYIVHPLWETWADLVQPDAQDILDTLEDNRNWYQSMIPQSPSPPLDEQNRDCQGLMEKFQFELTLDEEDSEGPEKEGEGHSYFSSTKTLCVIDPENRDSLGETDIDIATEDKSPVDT
# EXPERIMENT_SUMMARY: PDE4B2 cell experiment (cAMP, Eu-cAMP tracer / Ulight-anti-cAMP)
# Format: cell-based
# TEST_CONTEXT: Flpin-293-PDE4B2 cells, 1 nM
EXPERIMENTAL_ENDPOINT: Cell Inhibition% @1 nM (%)
Note: unit % is implicit; provide only the numeric part.

Worked examples follow.
[O-][S+]1CCc2nc(N3CC[C@@H]4c5cccc(Cl)c5OC[C@H]4C3)nc(NC3(CO)CCC3)c21 (stereo partly shown) ... 2.82
[O-][S+]1CCc2nc(N3CCc4cc(-c5cnco5)ccc4C3)nc(NC3(CO)CCC3)c21 (stereo not shown) ... 41.7
[O-][S+]1CCc2nc(N3CCc4cnc(Cl)cc4C3)nc(NC3(CO)CCC3)c21 (stereo not shown) ... 1.99

Now consider the entry below.
Dear colleague, I am looking for the recorded Cell Inhibition% @1 nM of the following compound: [O-][S+]1CCc2nc(N3CCc4c(c(NCCO)nc5cc(Cl)ccc45)C3)nc(NC3(CO)CCC3)c21 (stereo not shown)
2.83
